- target under test: T1, Mouse Semaphorin3A-Sema Domain, TPP-19069 (mouse, UniProt O08665 21-569)
- T1 construct: produced inhouse
- T1 sequence: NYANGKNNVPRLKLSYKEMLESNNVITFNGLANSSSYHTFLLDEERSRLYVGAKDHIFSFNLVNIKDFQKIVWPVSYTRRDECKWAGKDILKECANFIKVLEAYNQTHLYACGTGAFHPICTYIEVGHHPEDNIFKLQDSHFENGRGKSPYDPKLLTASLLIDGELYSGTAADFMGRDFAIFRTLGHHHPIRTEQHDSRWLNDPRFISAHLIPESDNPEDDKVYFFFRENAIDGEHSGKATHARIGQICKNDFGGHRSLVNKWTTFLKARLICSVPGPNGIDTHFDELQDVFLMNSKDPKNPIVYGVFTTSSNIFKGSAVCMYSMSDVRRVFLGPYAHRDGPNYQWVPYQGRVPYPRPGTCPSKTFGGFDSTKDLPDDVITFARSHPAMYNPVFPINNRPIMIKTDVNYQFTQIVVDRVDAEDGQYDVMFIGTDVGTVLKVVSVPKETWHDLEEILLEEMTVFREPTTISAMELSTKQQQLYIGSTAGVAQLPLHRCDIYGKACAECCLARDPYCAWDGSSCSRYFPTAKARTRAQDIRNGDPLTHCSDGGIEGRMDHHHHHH
- protocol summary: SPR, captured antibody, Sema3A domain analyte
- Method: To assess the binding kinetics and affinity of anti-Sema3A antibodies as well as their species cross-reactivity profile, binding assays were conducted using surface plasmon resonance (SPR). Binding assays were performed on a Biacore T200 instrument or on a Biacore 8K+ instrument (Cytiva) at 25° C. using assay buffer HBS P+, 300 mM NaCl, 0.75 mM CaCl₂, 2.5 mM MgCl₂, 1 mg/ml BSA, 0.05% NaN₃. […]
measure name: Kd (nM)
Answer with a number only, understood to be in nM.

Consider the worked cases shown below.
1. TPP-30788 (antibody, human IgG1, kappa, V domains shown, prior art, WO 2020/225400; also called BI clone I; Böhringer (BI) Clone I) VH: EVQLVESGGGLVQPGGSLRLSCAASGFTFSSYYMSWVRQAPGKGLEWVSTIIKSGGYAYYPDSVKDRFTISRDNSKNTLYLQMSSLRAEDTAVYYCVRGGQGAMDYWGQGTTVTVSS VL: EIVLTQSPATLSLSPGERATLSCRASQSIGDYLHWYQQKPGQAPRLLIKYASQSISGIPARFSGSGSGTDFTLTITSLEPEDFAVYYCQQGYSFPYTFGGGTKLEIKR
0.043
2. TPP-30790 (antibody, human IgG1, kappa, V domains shown, prior art, WO 2020/225400; also called BI clone III; Böhringer (BI) Clone III) VH: EVQLVESGGGLVQLGGSLRLSCAASGFTFSSYYMSWVRQAPGKGLEWVSTIIKSGGYAYYPDSVKDRFTISRDNSKNTLYLQMNSLRAEDTAVYYCVKGGQGAMDYWGQGTTVTVSS VL: EIVLTQSPATLSLSPGERATLSCRASQSIGDYLHWYQQKPGQAPRLLIYYASQSISGIPARFSGSGSGTDFTLTISSLEPEDFAVYYCQQGYSFPYTFGGGTKLEIKR
0.04
3. TPP-15374 (antibody, human IgG1, lambda, V domains shown, human IgG1; also called IgG1, hit from panning; parental mAb) VH: EVQLLESGGGLVQPGGSLRLSCAASGFTFSSYEMNWVRQAPGKGLEWVSGISWNSGSIGYADSVKGRFTISRDNSKNTLYLQMNSLRAEDTAVYYCARSGYSSSWFDPDFDYWGQGTLVTVSS VL: QSVLTQPPSASGTPGQRVTISCTGSSSNIGAGYDVHWYQQLPGTAPKLLIYGNSNRPSGVPDRFSGSKSGTSASLAISGLRSEDEADYYCSSYAGSNPYVVFGGGTKLTVLG
8.3

With those in mind, consider the next binder.
Complete the entry with Kd for TPP-30791 (antibody, human IgG1, kappa, V domains shown, prior art, WO 2020/225400; also called BI clone IV; Böhringer (BI) Clone IV) VH: EVQLVESGGGLLQLGGSLRLSCAASGFTFSSYYMSWVRQAPGKGLEWVSTIIKSGGYAYYPDSVKDRFTISRDNSKNTLNLQMNSLRAEDTAVYYCVKGGQGAMDYWGQGTTVTVSS VL: EIVLTQSPATLSLSPGERATLSCRASQSIGDYLHWYQQKPGQAPRLLIKYASQSISGIPARFSGSGSGTDFTLTISSLEPEDFAVYYCQQGYSFPYTFGGGTKLEIKR
0.028
